System: K-562 leukemia
Test: NCI-60 one-dose screen, 48 h (100 = growth as untreated, 0 = no growth, -100 = all killed)
Conditions: 10 µM unless noted
About 83,000 compounds went through this panel and 20% of them were active in at least one assay; those are over-represented in the sample as a whole.
Assignment: determine reported growth for the given compounds.
Numeric only. Scale: %

Entry NC(=O)NC1(C(=O)O)CCCC1 : reported growth = ?
99.9

Entry COc1ccc2c(c1)sc1nc(-c3ccc(N(C)C)cc3)cn12 : reported growth = ?
80

Entry COc1ccc(N2CCN(CC(=O)N3CCN(c4nnc(-c5ccc(Cl)cc5)c(-c5ccc(Cl)cc5)n4)CC3)CC2)cc1 : reported growth = ?
22.3

Entry CC(=O)N1N=C(c2ccc(C(F)(F)F)cc2)CC1c1ccc2c(c1)OCO2 (centres undefined) : reported growth = ?
73.8

Hello, the source for this data is PubChem BioAssay (NCI), in case you need it.
